Values compiled from PubChem BioAssay.

system.tested: Dickkopf-related protein 1 (Homo sapiens) (UniProt O94907)
Sequence (O94907 whole entry, looked up): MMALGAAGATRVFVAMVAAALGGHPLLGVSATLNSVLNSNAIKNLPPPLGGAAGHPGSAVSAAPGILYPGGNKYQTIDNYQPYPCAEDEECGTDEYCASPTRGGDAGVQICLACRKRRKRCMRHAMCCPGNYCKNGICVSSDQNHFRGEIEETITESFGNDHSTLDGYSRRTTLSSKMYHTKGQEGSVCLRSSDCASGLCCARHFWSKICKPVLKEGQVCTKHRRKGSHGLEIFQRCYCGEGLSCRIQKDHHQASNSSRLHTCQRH
procedure.details: DKK1 binders on small-molecule microarrays, primary screen, biochemical, small-molecule microarray, 635 nm fluorescence scan (AID 1106);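 further: score merges emission near 667 nm with signal to noise over three replicate slides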
test.context: DKK1 binding, higher = more signal
I'd be grateful if you could share measured composite z-score for these entries.
Give bare numbers.

molecule	system.tested	composite z-score
C=CCN1C(=O)[C@@]2(CCC(=O)OC(C)(C)C)N=C(c3ccc(OCCCO)cc3)O[C@H]2c2ccccc21	Dickkopf-related protein 1 (Homo sapiens) (UniProt O94907)	0.116

Give me composite z-score for each of these molecules, listed below.
1. C=CCN1C(=O)[C@]2(CC=C)N=C(c3ccc(OCCCO)cc3)O[C@@H]2c2ccccc21
2. COc1cc(OC)c(C(O)C2C=CC3C(=O)N(c4ccccc4)C(=O)C3N2Nc2ccc(C#N)cc2)cc1Br (stereo not given)
3. CN(C)CCCNC(=O)[C@@]1(C)c2ccccc2C(=O)N(Cc2cc(C(F)(F)F)cc(C(F)(F)F)c2)[C@H]1c1ccc(CO)cc1
4. COc1ccc([Si](C)(C)[C@H]2[C@H](CCO)O[C@@]3(C(=O)N(Cc4cccc(N5CCCCC5=O)c4)c4ccccc43)[C@@H]2C)cc1

1: 0.95; 2: -0.0884; 3: -0.992; 4: 0.82

* * *

system.tested: Torsin-1A (Homo sapiens)
procedure.details: torsin A binders from cell lysate, primary screen, small-molecule microarray, wild-type, 635/667 nm (AID 1149)
test.context: COS7 hTOR1A-WT lysate, 635 nm fluorescence, higher = more signal
quantity: composite z-score

compound	system.tested	composite z-score
COc1ccc(C#Cc2ccc3c(c2)[C@]2(C(=O)N3)[C@H](C(=O)N3CCc4cc(OC)c(OC)cc4C3)[C@H]3C(=O)O[C@H](c4ccccc4)[C@H](c4ccccc4)N3[C@@H]2c2ccc(O)cc2)cc1	Torsin-1A (Homo sapiens)	1.03
[N-]=[N+]=Nc1ccccc1C[C@]1(C(=O)NCc2ccccc2)N=C(c2ccc(OCCCO)cc2)O[C@H]1c1ccccc1	Torsin-1A (Homo sapiens)	0.403
CON(C)C(=O)C=C1C[C@@H](c2cccc(Cl)c2)O[C@@H](c2cccc(Cl)c2)O1	Torsin-1A (Homo sapiens)	0.643
C=C[C@@H](COC(C)=O)NS(=O)(=O)c1ccc(Br)cc1	Torsin-1A (Homo sapiens)	0.825
O=C1c2ccccc2[C@@]2(Cc3ccccc3N(C3CC3)C2=O)[C@H](c2ccc(CO)cc2)N1C1CCCCC1	Torsin-1A (Homo sapiens)	-0.822
NC(=O)N1C(=O)C2C(C1=O)C1C=C(c3ccc(CO)cc3)C2C(C2CC2)N1Cc1sc2ccccc2c1Cl (centres undefined)	Torsin-1A (Homo sapiens)	1.19

Look up composite z-score for the entries below, preserving their order.
1. COC(=O)[C@@]1(Cc2ccccc2)[C@H]2c3cc(C(=O)N4CCCC4)n(Cc4ccsc4Br)c3C[C@H]2CN1C(=O)c1ccccc1
2. COCCOC(=O)N1C(=O)[C@@]2(c3cc(C#CC4(O)CCCCCC4)ccc31)[C@H](C(N)=O)[C@H]1C(=O)O[C@H](c3ccccc3)[C@H](c3ccccc3)N1[C@@H]2c1ccccc1OCCO
3. O=c1cccc(-c2ccc(C(F)(F)F)cc2)o1

1. 0.147
2. 0.329
3. -0.848

Items follow; give composite z-score for each.
1. C=CCN1C(=O)[C@@]2(O[C@@H](CCn3cc([C@H](O)c4ccccc4)nn3)[C@H]([Si](C)(C)c3ccc(OC)cc3)[C@H]2C)c2ccccc21
2. O=C1O[C@@H](c2ccccc2)[C@@H](c2ccccc2)N2[C@@H](c3ccc(O)cc3)[C@]3(C(=O)Nc4ccc(C#CCCO)cc43)[C@@H](C(=O)Nc3nc4ccccc4s3)[C@H]12
3. C[C@]1(C(=O)NCCN2CCOCC2)c2ccccc2C(=O)N(Cc2ccc(OC(F)(F)F)cc2)[C@H]1c1ccc(CO)cc1
4. CC(C)C[C@@H]1NC(=O)[C@H]2C[C@@H](C(=O)NCCCCCC[N+](C)(C)C)[C@@H](c3cccc(OCCO)c3)N2C1=O
5. CC1CC/C=C\[C@H]2OC34C=CCN(C(C)C)C(=O)[C@H]3N(CCCCCO)C(=O)[C@@H]4C2C(=O)O1 (some centres undefined)
6. NCCCCCCNC(=O)[C@H]1C[C@H]2C(=O)N[C@@H](Cc3ccccc3)C(=O)N2[C@H]1c1ccc(O)cc1
7. COc1cc2c(cc1OC)CN(C(=O)[C@H]1[C@@H]3C(=O)O[C@@H](c4ccccc4)[C@@H](c4ccccc4)N3[C@@H](c3ccc(OCCO)cc3)[C@]13C(=O)Nc1ccc(C#CC4(O)CCCCCC4)cc13)CC2

1. -0.0628
2. -0.363
3. 0.816
4. 0.126
5. -1.14
6. 2.14
7. 0.765

# return composite z-score for each item in the list
1. [N-]=[N+]=NCc1ccccc1C[C@@]1(C(=O)NCCN2CCOCC2)N=C(c2ccc(OCCCO)cc2)O[C@@H]1c1ccccc1N=[N+]=[N-]
2. COC(=O)[C@@]1(Cc2ccccc2)[C@H]2c3cc(C(=O)N4CCCC4)[nH]c3C[C@H]2CN1C(=O)c1ccccc1
3. C=C(CCCC)/C(=C/C[C@@H](OC(=O)c1ccncc1)c1cccc(OCCO)c1)c1cnc2ccccc2c1
4. C=CC[C@H](OC(=O)Nc1ccc(OC)cc1)c1ccc(O)c2ccccc12

0.5
0.223
1.22
0.51

Lab note: each compound below needs its composite z-score filled in.
1. CC(=O)N1Cc2ccccc2C[C@]2(N=C(c3ccc(OCCCO)cc3)O[C@@H]2c2ccccc2)C1=O
2. CN1C(=O)C2C=CC(C(O)Cc3ccccc3)N(N(c3ccccc3)c3ccccc3)C2C1=O (centres undefined)
3. CN1C(=O)C2C(C1=O)C1C=C(c3ccc(CO)cc3)C2C(c2cccs2)N1Cc1cccc(OC(F)(F)F)c1 (centres undefined)
4. O=C1OCC=C[C@H]2OC34C=CCN(c5ccc(Cl)cc5)C(=O)[C@H]3N(CCCCCO)C(=O)[C@@H]4[C@@H]12 (some centres undefined)

1: 0.611; 2: 0.0867; 3: 1.13; 4: 0.172

Each compound below has a recorded value; state its composite z-score.
1. CCCCN1CC=CC23O[C@@H]4C=CCOC(=O)[C@@H]4[C@H]2C(=O)N(CCCO)[C@@H]3C1=O (some centres undefined)
2. CC(C)CN1C(=O)[C@@]2(Cc3ccccc31)c1ccccc1C(=O)N(Cc1ccccc1C(F)(F)F)[C@H]2c1ccc(CO)cc1

1. 0.222
2. -2.38

Please supply composite z-score for each of the following items, keeping them in order.
1. COc1ccc([Si](C)(C)[C@@H]2[C@@H](CCO)O[C@]3(C(=O)N(Cc4cccc(N5C(=O)c6ccccc6Oc6ccccc65)c4)c4ccccc43)[C@H]2C)cc1
2. C=C[C@@H](C)[C@H](OC(=O)Nc1ccc(SC)cc1)c1ccc(OCCO)cc1
3. CC(C)C(=C=CC[C@@H](O)c1ccccc1OCCO)C[C@@H](O)COCc1ccccc1

-0.133
-0.582
0.636

* * *

System: Chordin-like protein 2 (CHRDL2)
procedure.details: CHRDL2 small-molecule binders, primary screen, biochemical, small-molecule microarray, 635 nm fluorescence (AID 1126);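 further: printed compound slides probed with Chrdl2 protein at 4 µg/mL for 1 h at 4 C; score merges 667 nm emission intensity with signal to noise over three replicate slides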
test.context: small-molecule microarray binding, fluorescence 635 nm; higher = more signal
Give measured composite z-score for each item. Keep answers brief.
Give bare numbers.

Solved cases below.
compound	composite z-score
O=C1O[C@@H](c2ccccc2)[C@@H](c2ccccc2)N2[C@@H](c3ccc(O)cc3)[C@]3(C(=O)Nc4ccccc43)[C@@H](C(=O)Nc3nc4ccccc4s3)[C@H]12	0.0129
COc1ccc(C(O)C2C=CC3C(=O)N(c4ccccc4)C(=O)C3N2Nc2ccccc2)cc1OCc1ccccc1 (centres undefined)	-0.356
CCOC(=O)C1=CC[C@@H](c2ccccc2C(F)(F)F)N(S(=O)(=O)c2ccc(C)cc2)C1	-0.41

Now turn to the next compound.
Give composite z-score; test system Chordin-like protein 2 (CHRDL2); compound COc1ccc([Si](C)(C)[C@H]2[C@H](CCO)O[C@@]3(C(=O)N(Cc4cccc(N5CCCCC5=O)c4)c4ccccc43)[C@@H]2C)cc1
0.769

* * *

procedure.details: MM1S myeloma cell viability, profiling panel, resazurin fluorescence, basal, 24 h, PK04 Diversity Set (AID 1174);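 further: MM1S multiple myeloma cell line; test concentration not given here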
test.context: higher = more signal, called active from +8 up or from −8 down
quantity: z-score
Give bare numbers.

Example compounds with recorded z-score:
compound	quantity	result.number
COc1cc2c(cc1OC)CN(C(=O)[C@@H]1[C@H]3C(=O)O[C@H](c4ccccc4)[C@H](c4ccccc4)N3[C@H](c3ccccc3OCCO)[C@@]13C(=O)Nc1ccc(C#CC4(O)CCCCCC4)cc13)CC2	z-score	-2.17
CC(=O)n1cc(C(O)C2C=CC3C(=O)N(c4ccccc4)C(=O)C3N2Nc2ccccc2)c2ccccc21 (centres undefined)	z-score	-2.12
C=CCOC(=O)[C@@H]1[C@H]2C(=O)O[C@H](c3ccccc3)[C@H](c3ccccc3)N2[C@H](c2ccc(OCCOC(=O)[C@H]3C[C@H]4C(=O)N[C@@H](CC(C)C)C(=O)N4[C@H]3c3ccc(O)cc3)cc2)[C@@]12C(=O)Nc1ccc(I)cc12	z-score	0.219
C=C[C@H](COC(C)=O)NS(=O)(=O)c1ccc(Br)cc1	z-score	-0.05
COc1ccc(C(O)C2C=CC3C(=O)N(c4ccccc4)C(=O)C3N2Nc2ccc(C#N)cc2)c2ccccc12 (centres undefined)	z-score	-0.293
O=C1O[C@@H](c2ccccc2)[C@@H](c2ccccc2)N2[C@@H](c3ccc(O)cc3)[C@]3(C(=O)Nc4ccccc43)[C@@H](C(=O)Nc3nc4ccccc4s3)[C@H]12	z-score	-3.11

Hey, can you go through the list below and give me z-score for every item?
1. CN1C(=O)[C@@]2(CCS(=O)(=O)c3ccccc3)N=C(c3ccc(OCCCO)cc3)O[C@H]2c2ccccc21
2. CC(C)(C)OC(=O)CC[C@]1(C(=O)O)N=C(c2ccc(OCCCO)cc2)O[C@H]1c1ccccc1
3. COC(=O)[C@@]1(Cc2ccc(OC)cc2)[C@H]2c3cc(C(=O)N(C)C)n(Cc4nc5ccccc5[nH]4)c3C[C@H]2CN1C(=O)c1ccccc1
4. CN1C(=O)C2C=CC(C(O)Cc3ccccc3)N(N(c3ccccc3)c3ccccc3)C2C1=O (centres undefined)
5. COC(=O)[C@@]1(Cc2ccc(F)cc2)[C@H]2c3cc(C(=O)N4CCCC4)n(CCc4c[nH]c5ccc(OC)cc45)c3C[C@H]2CN1C(=O)c1ccccc1
6. COc1ccc(NN2C(C(O)c3ccccn3)C=CC3C(=O)N(C4CCCCC4)C(=O)C32)cc1 (centres undefined)

1: 0.718; 2: 0.904; 3: -1.45; 4: -1.62; 5: -2.53; 6: 0.583

Give z-score for each listed item.
1. Cc1ccc(C(C)CC(O)C2C=CC3C(=O)N(c4ccccc4)C(=O)C3N2Nc2ccc(C(C)C)cc2)o1 (centres undefined)
2. C=CCNC(=O)[C@@H]1[C@H]2C(=O)O[C@H](c3ccccc3)[C@H](c3ccccc3)N2[C@H](c2ccccc2OCCO)[C@@]12C(=O)N(C(=O)OCCOC)c1ccc(C#CC3=CCCCC3)cc12

1. -0.905
2. -1
